measurement_protocol: Cell viability of LPS-treated mouse peritoneal macrophages (MTT assay)
Assay type: cell-based
condition: LPS-treated TGC-induced mouse peritoneal macrophages, 100 µM, mean ± S.E.M. (n = 4), # = cytotoxic effects were observed, read-out: cell viability (%) in MTT assay (values in parentheses) (converted)
Assign labels as follows, please: met for viability at 100 µM below 80%; not met for viability at 100 µM equal to or exceeding 80%.

Consider the worked cases shown below.
- CCC(=O)OC1C2(O)C(OC(C)=O)C3(C)CC24OC2(C)OC15C1CC(=O)OC(c6ccoc6)C1(C)C(OC(C)=O)CC5(O2)C4(C)C3C(OC(C)=O)C(=O)OC (centres unmarked) [compound 14, Carapanolide Q]: not met
- COC(=O)CC1C(C)C(=O)C2(CC3(O)C4CC(=O)OC(c5ccoc5)C4(C)CCC3(O)O2)C(OC(=O)C(C)C)C1(C)C (centres unmarked) [compound 17, carapanolide A]: not met
- CC(=O)O[C@@H]1C2C(C)(C)C(=O)C=C[C@]2(C)C2CC[C@@]3(C)[C@H](c4ccoc4)OC(=O)[C@H]4O[C@]43[C@]2(C)[C@@H]1O (some centres unmarked) [compound 5, andirolide H]: met

Next item in the queue.
Query block: A record lists CCC(=O)OC1C2(OC(C)=O)C(OC(C)=O)C3(C)CC24OC2(C)OC15C(CC(=O)OC)C1(C)CC(c6occc6C1=O)C5(O2)C41COC(=O)CC31 (centres unmarked) [compound 16, guianolide A] . Is its viability at 100 µM below 80%?
Result block: not met

----------
Test system: L929 cells
measurement_protocol: TNF-α-induced cytotoxicity in L929 cells (MTT assay)
Assay type: cell-based
condition: Mus musculus, L929; 3 µM; 1 ng/mL TNF-α, 44 h; mean ± S.E.M. (n = 4); read-out: Inhibition (%) of TNF-α-induced cytotoxicity
Description: The effects of the limonoids (1–17) on the sensitivity of hepatocytes to TNF-α were assessed by measuring TNF-α-induced decreases in the viability of L929 cells, a TNF-α-sensitive cell line, by using the MTT assay. In the absence of a test sample, the cells incubated with 1 ng/mL TNF-α for 44 h were compared with those not incubated with TNF-α. Assay for the TNF-α-induced cytotoxicity in L929 cells was performed as described previously. Silybin was used as a reference compound [36].
For each entry below, report its inhibition at 3 µM value.
Numbers only, in %.

* CC(=O)O[C@@H]1C2C(C)(C)C(=O)C=C[C@]2(C)C2CC[C@@]3(C)[C@H](c4ccoc4)OC(=O)[C@H]4O[C@]43[C@]2(C)[C@@H]1OC(C)=O (some centres unmarked) | 23.2

Hi, could you look up inhibition at 3 µM for each item in my list?
1. CCC(=O)OC1C2(O)C(OC(C)=O)C3(C)CC24OC2(C)OC15C1CC(=O)OC(c6ccoc6)C1(C)C(OC(C)=O)CC5(O2)C4(C)C3C(OC(C)=O)C(=O)OC (centres unmarked) [compound 14, Carapanolide Q]
2. CCC(=O)OC1C2(O)C(OC(C)=O)C3(C)CC24OC2(C)OC15C1CC(=O)OC(c6ccoc6)C1(C)C(OC(C)=O)C(O)C5(O2)C4(C)C3CC(=O)OC (centres unmarked) [compound 13, Carapanolide M]

Result block:
[8.6, -1.5]

For each of the compounds below, note its inhibition at 3 µM.
1. CC(=O)O[C@@H]1[C@H](O)C2C(C)(C)C(=O)C=C[C@]2(C)C2CC[C@@]3(C)[C@H](c4ccoc4)OC(=O)[C@H]4O[C@]43[C@@]21C (stereo partly drawn) [compound 6, 6α-hydroxygedunin]
2. COC(=O)CC1C(C)C(=O)C2(CC3(O)C4CC(=O)OC(c5ccoc5)C4(C)CCC3(O)O2)C(OC(=O)C(C)C)C1(C)C (centres unmarked) [compound 17, carapanolide A]

Result block:
[6.7, 8.8]

----------
For each record, write down the corresponding inhibition at 10 µM.
Tested on: primary cultured mouse hepatocytes
measurement_protocol: D-GalN-induced cytotoxicity in primary cultured mouse hepatocytes (MTT assay)
condition: Hepatocyte, read-out: Inhibition (%) of D-GalN-induced cytotoxicity
Answers are plain numbers, in %.

Illustrative cases are given below, each with its answer.
- COC(=O)C(OC(C)=O)C1C2(C)CC34OC5(C)OC6(C7CC(=O)OC(c8ccoc8)C7(C)C(OC(C)=O)C(O)C6(O5)C13C)C(OC(=O)C(C)C)C4(O)C2OC(C)=O (centres unmarked) [compound 15, Carapanolide O]: -5.3
- CC(=O)O[C@@H]1C2C(C)(C)C(=O)C=C[C@]2(C)C2CC[C@@]3(C)[C@H](c4ccoc4)OC(=O)[C@H]4O[C@]43[C@]2(C)[C@@H]1O (some centres unmarked) [compound 5, andirolide H]: -9
- CC(=O)O[C@@H]1[C@H](O)C2C(C)(C)C(=O)C=C[C@]2(C)C2CC[C@@]3(C)[C@H](c4ccoc4)OC(=O)[C@H]4O[C@]43[C@@]21C (stereo partly drawn) [compound 6, 6α-hydroxygedunin]: -9.4

Your task in this section: give inhibition at 10 µM for each listed record.
1. CCC(=O)OC1C2(O)C(OC(C)=O)C3(C)CC24OC2(C)OC15C1CC(=O)OC(c6ccoc6)C1(C)C(OC(C)=O)C(O)C5(O2)C4(C)C3CC(=O)OC (centres unmarked) [compound 13, Carapanolide M]
2. CC(=O)O[C@@H]1C[C@H]2C(C)(C)C(=O)C=C[C@]2(C)[C@H]2CC[C@@]3(C)[C@H](c4ccoc4)C(=O)[C@H]4O[C@]43[C@@]21C

Result block:
-7.3
-2.2

----------
System: L929 cells
measurement_protocol: TNF-α-induced cytotoxicity in L929 cells (MTT assay)
Format: cell-based
condition: Mus musculus, L929; 3 µM; 1 ng/mL TNF-α, 44 h; mean ± S.E.M. (n = 4); read-out: Inhibition (%) of TNF-α-induced cytotoxicity
value_kind: inhibition at 3 µM

Some entries whose results are on file:
* CCC(=O)OC1C2(OC(C)=O)C(OC(C)=O)C3(C)CC24OC2(C)OC15C(CC(=O)OC)C1(C)CC(c6occc6C1=O)C5(O2)C41COC(=O)CC31 (stereo not shown) [compound 16, guianolide A] | -6.2%
* CC(=O)O[C@@H]1C[C@H]2C(C)(C)C(=O)C=C[C@]2(C)[C@H]2CC[C@@]3(C)[C@H](c4ccoc4)OC(=O)[C@H]4O[C@]43[C@@]21C [compound 1, gedunin] | 21.8%

# return inhibition at 3 µM for each item in the list
1. CC(=O)O[C@@H]1C2C(C)(C)C(=O)C=C[C@]2(C)C2CC[C@@]3(C)[C@H](c4ccoc4)OC(=O)[C@H]4O[C@]43[C@]2(C)[C@@H]1O (stereo partly shown) [compound 5, andirolide H]
2. CCC(C)C(=O)OC1C2(OC(C)=O)CC3(O)C4=CC(=O)OC(c5ccoc5)C4(C)CCC3C(C)(C2=O)C(CC(=O)OC)C1(C)C (stereo not shown) [compound 10, Carapanolide C]

Result block:
["-0.7%", "14.2%"]

----------
measurement_protocol: Cell viability of LPS-treated mouse peritoneal macrophages (MTT assay)
Assay type: cell-based
value_kind: viability at 100 µM (%)
Give bare numbers, in %.

Query block: Which viability at 100 µM reading was recorded for the molecule CC(=O)O[C@@H]1CC2C(C)(C)C(=O)C=C[C@]2(C)C2CC[C@]3(C)C(=CC(=O)[C@@]3(O)c3ccoc3)[C@@]21C (stereo partly drawn) [compound 9, 17β-hydroxyazadiradione] ?
Result block: 84.8

----------
Test system: LPS-activated NO production in mouse peritoneal macrophages
measurement_protocol: LPS-induced NO production in mouse peritoneal macrophages
Format: cell-based
condition: Mus musculus, Peritoneal macrophage, read-out: Inhibition (%) of LPS-activated NO production
value_kind: inhibition at 3 µM (%)
Numbers only, in %.

- CC(=O)O[C@@H]1CC2C(C)(C)C(=O)C=C[C@]2(C)C2CC[C@]3(C)C(=CC(=O)[C@@]3(O)c3ccoc3)[C@@]21C (stereo partly drawn) [compound 9, 17β-hydroxyazadiradione]: -10.4
- CCC(=O)OC1C2(O)C(OC(C)=O)C3(C)CC24OC2(C)OC15C1CC(=O)OC(c6ccoc6)C1(C)C(OC(C)=O)C(O)C5(O2)C4(C)C3CC(=O)OC (stereo not shown) [compound 13, Carapanolide M]: -1.1
- CCC(=O)OC1C2(O)C(OC(C)=O)C3(C)CC24OC2(C)OC15C1CC(=O)OC(c6ccoc6)C1(C)C(OC(C)=O)CC5(O2)C4(C)C3C(OC(C)=O)C(=O)OC (stereo not shown) [compound 14, Carapanolide Q]: 1.9

Attention now turns to another entry.
Query block: // query inhibition at 3 µM value for entry CCC(=O)OC1C2(OC(C)=O)C(OC(C)=O)C3(C)CC24OC2(C)OC15C(CC(=O)OC)C1(C)CC(c6occc6C1=O)C5(O2)C41COC(=O)CC31 (stereo not shown) [compound 16, guianolide A]
Result block: 1.9

----------
I'd appreciate it if you could supply inhibition at 100 µM values for the items below.
System: primary cultured mouse hepatocytes
measurement_protocol: D-GalN-induced cytotoxicity in primary cultured mouse hepatocytes (MTT assay)
condition: Hepatocyte, read-out: Inhibition (%) of D-GalN-induced cytotoxicity
Answers are plain numbers, in %.

• CC1(C)C(=O)C=C[C@@]2(C)C1C[C@@H](O)[C@]1(C)C2CC[C@@]2(C)[C@H](c3ccoc3)OC(=O)[C@H]3O[C@]321 (stereo partly drawn) [compound 4, 7-deacetoxy-7α-hydroxygedunin] = -4.1
• CC(=O)O[C@@H]1C2C(C)(C)C(=O)C=C[C@]2(C)C2CC[C@@]3(C)[C@H](c4ccoc4)OC(=O)[C@H]4O[C@]43[C@]2(C)[C@@H]1O (stereo partly shown) [compound 5, andirolide H] = -0.6
• CC(=O)O[C@@H]1[C@H](O)C2C(C)(C)C(=O)C=C[C@]2(C)C2CC[C@@]3(C)[C@H](c4ccoc4)OC(=O)[C@H]4O[C@]43[C@@]21C (stereo partly drawn) [compound 6, 6α-hydroxygedunin] = -2.8
• CCC(=O)OC1C2(OC(C)=O)C(OC(C)=O)C3(C)CC24OC2(C)OC15C(CC(=O)OC)C1(C)CC(c6occc6C1=O)C5(O2)C41COC(=O)CC31 (stereo not shown) [compound 16, guianolide A] = 23.5
• CC(=O)O[C@@H]1C2C(C)(C)C(=O)C=C[C@]2(C)C2CC[C@@]3(C)[C@H](c4ccoc4)OC(=O)[C@H]4O[C@]43[C@]2(C)[C@@H]1OC(C)=O (stereo partly drawn) [compound 2, 6α-acetoxygedunin] = -1.8
• CCC(C)C(=O)OC1C2(OC(C)=O)CC3(O)C4=CC(=O)OC(c5ccoc5)C4(C)CCC3C(C)(C2=O)C(CC(=O)OC)C1(C)C (stereo not shown) [compound 10, Carapanolide C] = -7.7

Would you mind listing inhibition at 100 µM for each of the following compounds?
1. CCC(=O)OC1C2(O)C(OC(C)=O)C3(C)CC24OC2(C)OC15C1CC(=O)OC(c6ccoc6)C1(C)C(OC(C)=O)C(O)C5(O2)C4(C)C3CC(=O)OC (stereo not shown) [compound 13, Carapanolide M]
2. CC(=O)O[C@@H]1C[C@H]2C(C)(C)C(=O)C=C[C@]2(C)[C@H]2CC[C@@]3(C)[C@H](c4ccoc4)OC(=O)[C@H]4O[C@]43[C@@]21C [compound 1, gedunin]
3. CCC(=O)OC1C2(O)C(OC(C)=O)C3(C)CC24OC2(C)OC15C1CC(=O)OC(c6ccoc6)C1(C)C(OC(C)=O)CC5(O2)C4(C)C3C(OC(C)=O)C(=O)OC (stereo not shown) [compound 14, Carapanolide Q]

Result block:
[-9.9, -5.2, -6.2]

Query block: Form field: reported inhibition at 100 µM of C=C1[C@@H]2CC[C@@]3(C)[C@H](c4ccoc4)OC(=O)C[C@]13O[C@H]1CC(=O)C(C)(C)[C@H](CC(=O)OC)[C@]12C [compound 7, methyl angolensate]
Result block: -6.6

Every entry's value here was drawn from paper PMC4849045.
